Data origin, for the record: ChEMBL document CHEMBL3826897

Tested on: Thymocyte
Test: Toxicity in rat thymocytes assessed as increase in cell death at 100 uM measured after 4 hrs by flow cytometric analysis relative to control
Format: cell-based
MEASUREMENT TYPE: Ratio

Sample records with Ratio:
[
  {
    "COMPOUND SMILES": "Oc1ccc(/C=C/c2ccc(O)c(O)c2)cc1",
    "Ratio": "< 5"
  },
  {
    "COMPOUND SMILES": "COc1cc(/C=C/c2ccc(NC(C)=O)cc2)cc(OC)c1",
    "Ratio": "< 5"
  }
]

// next item, Ratio requested
stdin: Form field: reported Ratio of `COc1ccc(/C=C/c2cccc(OC)c2)cc1`
stdout: < 5
